From: PubChem BioAssay AID2060882

- System: 898857-211-R-J1-PDC complex spheroids, growth % test/control;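 note: spheroids exposed to compound for seven days before readout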
- Assay overview: Anticancer human tumor 898857-211-R-J1-PDC patient-derived melanoma cell line growth inhibition [RAS]
- Condition label: curve of first compound; second compound 0.316 µM
Observation type: IC50 (µM)
Give bare numbers, in µM.

O=C(c1ccc(F)c(F)c1Nc1ccc(I)cc1F)N1CC(O)([C@@H]2CCCCN2)C1 + C=CC(=O)N1CCN(c2nc(OCC3CCCN3C)nc3c(F)c(-c4nc(N)cc(C)c4C(F)(F)F)c(Cl)cc23)C(C)C1    0.00685
CC(C)n1nc(-c2ccc3oc(N)nc3c2)c2c(N)ncnc21 + C=CC(=O)N1CCN(c2nc(OCC3CCCN3C)nc3c(F)c(-c4nc(N)cc(C)c4C(F)(F)F)c(Cl)cc23)C(C)C1    0.0345
CC1(C)CCC(Nc2ncc(C(F)(F)F)c(-c3c[nH]c4c(P(C)(C)=O)c(C#N)ccc34)n2)CN1 (configuration not stated) + C=CC(=O)N1CCN(c2nc(OCC3CCCN3C)nc3c(F)c(-c4nc(N)cc(C)c4C(F)(F)F)c(Cl)cc23)C(C)C1    0.00577
CC1(C)CCC(Nc2ncc(C(F)(F)F)c(-c3c[nH]c4c(P(C)(C)=O)c(C#N)ccc34)n2)CN1 (configuration not stated) + C#Cc1c(F)ccc2cc(O)cc(-c3ncc4c(N5CC6CCC(C5)N6)nc(OCC56CCCN5CC(F)C6)nc4c3F)c12    0.0053

Now examine the next entry.
Need IC50 of CCC(CC)c1cc(NC2CCC(N)C2)n2nccc2n1 (configuration not stated) + C#Cc1c(F)ccc2cc(O)cc(-c3ncc4c(N5CC6CCC(C5)N6)nc(OCC56CCCN5CC(F)C6)nc4c3F)c12 , thanks. 1.24
